# key: entry, value: Th-227 in muscle
# Test: Biodistribution study in LNCaP tumor-bearing mice (Th227 counted in organs)
# Format: in vivo, SCID mice
# Measurement parameters: 0.25 h; 1500 kBq/kg
Please reply with the bare figure in % ID Th-227/g organ and do not write the unit itself.

See these solved cases before continuing.
Look at this compound and give its reported Th-227 in muscle. O=C([O-])CN1CCN(CC(=O)[O-])CCN(CC(=O)NCc2ccc(C(=O)N[C@@H](Cc3ccc4ccccc4n3)C(=O)NCCCC[C@H](NC(=O)N[C@@H](CCC(=O)O)C(=O)O)C(=O)O)nc2)CCN(CC(=O)[O-])CC1.[227Th+4] [Example 34-B-227Th]
1.02

Using the record for Cc1cc(C(=O)NCCN(CCCN(CCNC(=O)c2cc(C)n(CC(=O)O)c(=O)c2[O-])CCNC(=O)c2cc(C)n(CC(=O)NCC3CCC(C(=O)NC(Cc4cnc5ccccc5c4)C(=O)NCCCCC(NC(=O)NC(CCC(=O)O)C(=O)O)C(=O)O)CC3)c(=O)c2[O-])CCNC(=O)c2cc(C)n(CC(=O)NCC3CCC(C(=O)NC(Cc4cnc5ccccc5c4)C(=O)NCCCCC(NC(=O)NC(CCC(=O)O)C(=O)O)C(=O)O)CC3)c(=O)c2[O-])c([O-])c(=O)n1CC(=O)O.[227Th+4] (stereo not shown) [Example 22-C dimer-227Th] , report its Th-227 in muscle.
1.27

If you can, please state the reported Th-227 in muscle value of O=C([O-])CN1CCN(CC(=O)[O-])CCN(CC(=O)NCC2CCC(C(=O)NC(Cc3ccc4ccccc4c3)C(=O)NCCCCC(NC(=O)NC(CCC(=O)O)C(=O)O)C(=O)O)CC2)CCN(CC(=O)[O-])CC1.[227Th+4] [Example 1-B-D-227Th] .
0.88

Turning to the following compound.
# get_value(readout='Th-227 in muscle', item= O=C([O-])CN1CCN(CC(=O)[O-])CCN(CC(=O)NCC2CCC(C(=O)NC(Cc3ccc4ccccc4c3)C(=O)NCCCCC(NC(=O)NC(CCC(=O)O)C(=O)O)C(=O)O)CC2)CCN(CC(=O)[O-])CC1.[227Th+4] (stereo not shown) [Example 1-B-227Th] )
1.06
